system: human SMAD7 mRNA; test: Antisense inhibition of human SMAD7 mRNA expression in Hep3B cells by 3-10-3 cEt gapmers, 10,000 nM, electroporation (Example 2); assay type: cell-based; conditions: Hep3B cells, electroporation, 10,000 nM antisense oligonucleotide, approximately 24 hours, RTS5062, relative to untreated control cells
Strand notation (5' to 3'): a small letter for the sugar, then the base; units joined by * are phosphorothioate-linked, units joined directly phosphodiester-linked; [ ] holds rarer units or linkages, { } end groups; capitals alone tell only the bases. k = constrained ethyl (cEt); [5mC] = 5-methylcytosine; d = 2'-deoxy (DNA)
% inhibition of SMAD7 mRNA expression values by entry
I only need the number, in %, no unit after it.

# substance, observable, obs_value
rows = [
    ("799678 (antisense k[5mC]*kA*k[5mC]*dA*dA*dG*d[5mC]*dA*d[5mC]*d[5mC]*dT*dG*dT*k[5mC]*k[5mC]*kA) [compound 799678]", "% inhibition of SMAD7 mRNA expression", 0),
]

Query % inhibition of SMAD7 mRNA expression for 799617 (k[5mC]*kA*kA*d[5mC]*d[5mC]*dT*dG*d[5mC]*dA*dG*d[5mC]*d[5mC]*dA*kG*k[5mC]*kA; antisense) [compound 799617]
50

Fill in reported % inhibition of SMAD7 mRNA expression for this entry: 799308 (antisense k[5mC]*kG*k[5mC]*dT*d[5mC]*dT*dA*dA*dA*d[5mC]*dA*dG*d[5mC]*kA*kT*kG) [compound 799308]
47

Input 799756 (antisense k[5mC]*kA*kG*dG*dG*d[5mC]*dA*dG*d[5mC]*dT*d[5mC]*d[5mC]*dG*kA*kG*kA) [compound 799756] , output reported % inhibition of SMAD7 mRNA expression.
44

Tell me its % inhibition of SMAD7 mRNA expression given 799284 (antisense k[5mC]*kG*kT*dA*dA*dG*dA*d[5mC]*dA*dG*dA*d[5mC]*d[5mC]*kA*k[5mC]*kA) [compound 799284] as the entry.
51

Input 790719 (kG*kG*kA*d[5mC]*dA*dG*dT*d[5mC]*dT*dG*d[5mC]*dT*dG*kT*kG*kG; antisense) [compound 790719] , output reported % inhibition of SMAD7 mRNA expression.
86

Consider the substance 799680 (antisense kG*kA*kG*dT*dT*d[5mC]*dT*dA*dG*dG*d[5mC]*d[5mC]*dG*kT*k[5mC]*kA) [compound 799680] and give its recorded % inhibition of SMAD7 mRNA expression.
33

----------
assay: Hematology assays after subcutaneous administration in beagle dogs (Example 8); format: in vivo; details: 30 mg/kg subcutaneous days 1, 3, 5, 8, 15, 22, 29
observable: MCHC (g/dL)
Just the number please, in g/dL, no unit attached.

Solved entries (count: 4):
# substance, MCHC, g/dL
rows = [
    ("829994 (GGAGGCAGGGCCGCGA; 3-10-3 cEt gapmer, further chemistry not given here) [compound 829994]", 35.1),
    ("830121 (AGAATCAAGCCCTGGC; 3-10-3 cEt gapmer, further chemistry not given here) [compound 830121]", 32.9),
    ("830037 (antisense CTATTGGCTGATCTGG; 3-10-3 cEt gapmer, further chemistry not given here) [compound 830037]", 33.6),
    ("830025 (antisense TTTGTAAATCGAAAGC; 3-10-3 cEt gapmer, further chemistry not given here) [compound 830025]", 32.5),
]

Identify measured MCHC associated with 798781 (CGTAAGATTCACAGCA; 3-10-3 cEt gapmer, further chemistry not given here) [compound 798781]
33.6

Identify MCHC associated with the substance 790615 (CCAATGAGAATGCTTC; 3-10-3 cEt gapmer, further chemistry not given here) [compound 790615]
32.5

----------
// values below are reported pIC50
system: human SMAD7 mRNA; experiment: Dose-dependent inhibition of human SMAD7 mRNA expression in Hep3B cells (Example 3, Study 1 and 2); type: cell-based; details: electroporation, Study 2 (740-20000 nM)
pIC50: −log10 of the molar value. Strand notation (5' to 3'): a small letter for the sugar, then the base; units joined by * are phosphorothioate-linked, units joined directly phosphodiester-linked; [ ] holds rarer units or linkages, { } end groups; capitals alone tell only the bases. k = constrained ethyl (cEt); [5mC] = 5-methylcytosine; d = 2'-deoxy (DNA)

# substance, pIC50
data = [
    ("798954 (antisense kA*kT*kA*dA*dG*d[5mC]*dT*dA*dT*dT*dT*d[5mC]*dT*k[5mC]*kA*kA) [compound 798954]", "< 4.70"),
    ("799467 (antisense kG*k[5mC]*kA*dG*dA*d[5mC]*dA*dG*dA*dA*dG*d[5mC]*dT*k[5mC]*kT*kA) [compound 799467]", "< 4.70"),
]

Give reported pIC50 for 799674 (antisense kG*kA*kT*d[5mC]*dA*d[5mC]*dA*dA*dT*dT*d[5mC]*d[5mC]*dA*kA*kG*k[5mC]) [compound 799674] (human SMAD7 mRNA)
4.85

----------
test system: human SMAD7 mRNA; test: Antisense inhibition of human SMAD7 mRNA expression in Hep3B cells by 3-10-3 cEt gapmers, 10,000 nM, electroporation (Example 2); format: cell-based; conditions: Hep3B cells, electroporation with 10,000 nM antisense oligonucleotide, approximately 24 hours, primer probe set RTS5062, relative to untreated control cells
Strand notation (5' to 3'): a small letter for the sugar, then the base; units joined by * are phosphorothioate-linked, units joined directly phosphodiester-linked; [ ] holds rarer units or linkages, { } end groups; capitals alone tell only the bases. k = constrained ethyl (cEt); [5mC] = 5-methylcytosine; d = 2'-deoxy (DNA)
substances and their reported % inhibition of SMAD7 mRNA expression
Expressed in %, but write only the number.

Below: 2 substances and their reported % inhibition of SMAD7 mRNA expression.
# substance, display_unit, % inhibition of SMAD7 mRNA expression
measured = [
    ("799025 (k[5mC]*kG*k[5mC]*dT*dT*dG*dG*dG*dA*d[5mC]*dT*dG*d[5mC]*kA*kA*kA; antisense) [compound 799025]", "%", 10),
    ("798949 (antisense kA*kG*kA*dG*d[5mC]*dG*dA*dA*dA*d[5mC]*dA*dA*dA*kA*k[5mC]*kA) [compound 798949]", "%", 55),
]

// next item, % inhibition of SMAD7 mRNA expression requested
For the substance 799007 (kT*kG*k[5mC]*d[5mC]*dG*d[5mC]*dT*d[5mC]*d[5mC]*dT*dG*d[5mC]*dA*k[5mC]*kA*k[5mC]; antisense) [compound 799007] , give its measured % inhibition of SMAD7 mRNA expression value.
47

----------
system: human SMAD7 mRNA; assay: Antisense inhibition of human SMAD7 mRNA expression in Hep3B cells by 3-10-3 cEt gapmers, 10,000 nM, electroporation (Example 2); assay type: cell-based; conditions: Hep3B cells, 10,000 nM antisense oligonucleotide, electroporation, approximately 24 hours, RT-PCR primer probe set RTS5062, relative to untreated control cells
Strand notation (5' to 3'): a small letter for the sugar, then the base; units joined by * are phosphorothioate-linked, units joined directly phosphodiester-linked; [ ] holds rarer units or linkages, { } end groups; capitals alone tell only the bases. k = constrained ethyl (cEt); [5mC] = 5-methylcytosine; d = 2'-deoxy (DNA)
// % Inhibition lookup, one value per entry
// units = %; emit number, no label

These solved cases illustrate the format of a correct answer.
# substance, display_unit, % Inhibition
rows = [
    ("798894 (kA*kG*k[5mC]*dA*d[5mC]*dT*dG*dG*d[5mC]*d[5mC]*d[5mC]*d[5mC]*dA*kG*k[5mC]*k[5mC]; antisense) [compound 798894]", "%", 55),
    ("800096 (antisense kT*kG*kG*dA*dG*dT*dT*dA*d[5mC]*dA*dG*dA*dT*k[5mC]*kT*kT) [compound 800096]", "%", 32),
    ("799876 (kG*k[5mC]*k[5mC]*dA*dG*dG*dG*d[5mC]*d[5mC]*dG*d[5mC]*dA*d[5mC]*kT*kG*kT; antisense) [compound 799876]", "%", 55),
    ("800097 (antisense kG*k[5mC]*k[5mC]*dT*d[5mC]*dA*dA*dA*dA*dA*dG*d[5mC]*d[5mC]*kT*k[5mC]*kA) [compound 800097]", "%", 1),
    ("798930 (antisense kG*kA*kA*dA*dA*dT*dA*dT*dT*dA*dG*d[5mC]*dA*kG*k[5mC]*kA) [compound 798930]", "%", 62),
]

Report measured % Inhibition; entry is 800094 (antisense kA*kT*kG*dG*dA*dA*d[5mC]*d[5mC]*dT*dT*dG*dA*dA*kG*kG*k[5mC]) [compound 800094]
49

Quickly give me recorded % Inhibition for 799997 (kA*kT*kG*dA*d[5mC]*d[5mC]*d[5mC]*dA*d[5mC]*dG*dG*dT*dT*kA*kA*kA; antisense) [compound 799997]
14

Give me measured % Inhibition, please, for this substance: 798854 (kT*kA*k[5mC]*dA*d[5mC]*d[5mC]*d[5mC]*dA*d[5mC]*dA*d[5mC]*dA*d[5mC]*k[5mC]*kA*kT; antisense) [compound 798854]
25

Kindly indicate its recorded % Inhibition. Item: 799973 (kA*kT*kA*dA*dT*dT*d[5mC]*dA*d[5mC]*dA*dA*dG*dG*kA*k[5mC]*k[5mC]; antisense) [compound 799973]
0

Supply % Inhibition value. Item: 799952 (antisense k[5mC]*kT*k[5mC]*dT*dA*dA*dG*dT*dG*dG*d[5mC]*dT*d[5mC]*kA*kT*kG) [compound 799952]
30

State its % Inhibition for this substance: 800010 (kG*kT*kT*dA*dT*dT*dT*dA*dA*dT*dT*dA*d[5mC]*k[5mC]*k[5mC]*kT; antisense) [compound 800010]
69

Specify reported % Inhibition for the substance shown: 798925 (kA*kG*kT*dA*dG*dT*dT*dT*dG*dA*dA*dG*dT*kG*kT*kG; antisense) [compound 798925]
0

These measurements were taken from patent US10517889B2.
